System: OVCAR-5 ovarian
method: NCI-60 one-dose screen, 48 h
details: 10 µM unless noted
About 83,000 compounds went through this panel and 20% of them were active in at least one assay; those are over-represented in the sample as a whole. Activity calls are given as the source filed them. Rule for the calls: active = growth percent below 10; inactive = the rest.
A correct response names exactly one class from true (1) (active), false (0) (inactive)

Some entries whose results are on file:
compound	studyTarget	groupLabel
CC1(C)CC(=O)C2=C(C1)N(c1ccc(OC(F)(F)F)cc1)C(N)=C(C#N)C2c1ccc(Br)cc1F (stereo unspecified)	OVCAR-5 ovarian	false (0)
COc1ccc(/C=N\Nc2nc(SCCC(C)C)nc(-c3ccc(OC)cc3)c2C#N)cc1	OVCAR-5 ovarian	false (0)
COc1ccc(-c2ccc(-c3ccc(C(=N)N)cc3)s2)cc1Cl	OVCAR-5 ovarian	false (0)
COc1ccc(-c2cc(-c3cccnc3)nc3sc4c(=O)[nH]c(-c5ccc(Cl)cc5)nc4c23)cc1OC	OVCAR-5 ovarian	false (0)
CCOC(=O)c1c(NC(=O)c2cccc(C(F)(F)F)c2)sc2c(CN(C)C)c(O)ccc12	OVCAR-5 ovarian	false (0)

Could you check what this test reported for `CN1CCc2nc3sc(C(N)=O)c(N)c3c(-c3cccs3)c2C1` ?
false (0)

Could you check what this test reported for `CCc1ccc(CCCC(=O)O)cc1` ?
false (0)

Could you check what this test reported for N#Cc1ccc(O)c(C2=NCC(c3ccccc3)O2)c1 (stereo unspecified) ?
false (0)

Could you check what this test reported for `O=C(N(c1ccccc1)c1ccccc1)n1cc(I)c2nc(Cl)nc(Cl)c21` ?
false (0)

Could you check what this test reported for `COc1ccc2c(c1OC)CO[C@@H]2[C@H]1c2c(cc3c(c2OC)OCO3)CCN1S(=O)(=O)c1cn(C)cn1` ?
false (0)

Could you check what this test reported for `COc1ccc(-c2noc(C(=O)O)c2-c2cc(OC)c(OC)c(OC)c2)cc1` ?
false (0)

Could you check what this test reported for `c1ccc(-c2oc(-c3ccccc3)c(CN3CCCCC3)c2CN2CCCCC2)cc1` ?
false (0)

Where do the numbers come from? From PubChem BioAssay (NCI).
